# target-desc: T1, full-length human CD86 on HEK293 cells (human, UniProt P42081 24-329)
# T1 sequence: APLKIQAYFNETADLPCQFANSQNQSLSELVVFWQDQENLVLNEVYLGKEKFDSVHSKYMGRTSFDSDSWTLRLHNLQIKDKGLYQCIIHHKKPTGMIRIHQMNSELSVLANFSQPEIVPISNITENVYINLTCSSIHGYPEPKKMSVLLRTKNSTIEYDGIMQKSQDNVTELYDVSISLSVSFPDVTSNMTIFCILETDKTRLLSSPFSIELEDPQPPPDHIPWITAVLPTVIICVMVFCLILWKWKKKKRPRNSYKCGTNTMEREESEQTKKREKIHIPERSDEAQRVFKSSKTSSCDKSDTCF
# measurement-notes: cell-based or functional assay
Mean IC50 (nM), CD4+ T cell proliferation overview
Please give a number only; it is taken to be in nM.

Completed entries (count: 6):
• D3-75-IgG2 (Fc fusion) MHVAQPAVVLASSRGIASFVCEYESPGKANEVRVTVLRQADSQVTEVCAMTYMKENELTFLDDPSCTGTFSGNQVNLTIQGLRAMDTGLYICKVELMYPPPYYLGIGNGTQIYVIDPEPCPDSDERKCCVECPPCPAPPVAGPSVFLFPPKPKDTLMISRTPEVTCVVVDVSHEDPEVQFNWYVDGVEVHNAKTKPREEQFNSTFRVVSVLTVVHQDWLNGKEYKCKVSNKGLPAPIEKTISKTKGQPREPQVYTLPPSREEMTKNQVSLTCLVKGFYPSDIAVEWESNGQPENNYKTTPPMLDSDGSFFLYSKLTVDKSRWQQGNVFSCSVMHEALHNHYTQKSLSLSPG = 0.03
• D3-39-IgG2 (Fc fusion) MHVAQPAVVLASSRGIASFVCEYESPGKANEVRVTVLRQADSQVTEVCAMTYMKGNELTFLDDPICTGTFSGNQVNLTIQGLRAMDTGLYICKVELMYPPPYYLGIGNGTQIYVIDPEPCPDSDERKCCVECPPCPAPPVAGPSVFLFPPKPKDTLMISRTPEVTCVVVDVSHEDPEVQFNWYVDGVEVHNAKTKPREEQFNSTFRVVSVLTVVHQDWLNGKEYKCKVSNKGLPAPIEKTISKTKGQPREPQVYTLPPSREEMTKNQVSLTCLVKGFYPSDIAVEWESNGQPENNYKTTPPMLDSDGSFFLYSKLTVDKSRWQQGNVFSCSVMHEALHNHYTQKSLSLSPG = 0.05
• D3-72-IgG2 (Fc fusion) MHVAQPAVVLASSRGIASFVCEYESPGKANEIRVTVLRQADSQVTEVCAMTYMKGNELTFLDDPSCTGTFSGNQVNLTIQGLRAMDTGLYICKVELMYPPPYYEGIGNGTQIYVIDPEPCPDSDERKCCVECPPCPAPPVAGPSVFLFPPKPKDTLMISRTPEVTCVVVDVSHEDPEVQFNWYVDGVEVHNAKTKPREEQFNSTFRVVSVLTVVHQDWLNGKEYKCKVSNKGLPAPIEKTISKTKGQPREPQVYTLPPSREEMTKNQVSLTCLVKGFYPSDIAVEWESNGQPENNYKTTPPMLDSDGSFFLYSKLTVDKSRWQQGNVFSCSVMHEALHNHYTQKSLSLSPG = 0.03
• D3-IgG2 (Fc fusion, also called clone D3) MHVAQPAVVLASSRGIASFVCEYESPGKANEIRVTVLRQAGSQVTEVCAMTYMKGDELTFLDDPSCTGTFSGNQVNLTIQGLRAADTGLYICKVELMYPPPYYLGFGNGTQIYVIDPEPCPDSDERKCCVECPPCPAPPVAGPSVFLFPPKPKDTLMISRTPEVTCVVVDVSHEDPEVQFNWYVDGVEVHNAKTKPREEQFNSTFRVVSVLTVVHQDWLNGKEYKCKVSNKGLPAPIEKTISKTKGQPREPQVYTLPPSREEMTKNQVSLTCLVKGFYPSDIAVEWESNGQPENNYKTTPPMLDSDGSFFLYSKLTVDKSRWQQGNVFSCSVMHEALHNHYTQKSLSLSPG = 0.04
• D3-15-IgG2 (Fc fusion) MHVAQPAVVLASSRGIASFVCEYESPGKANEIRVTVLRQADSQVTEVCAMTYMKGDELTFLDDPSCTGTFSGNQVNLTIQGLRAMDTGLYICKVELMYPPPYYLGFGNGTQIYVIDPEPCPDSDERKCCVECPPCPAPPVAGPSVFLFPPKPKDTLMISRTPEVTCVVVDVSHEDPEVQFNWYVDGVEVHNAKTKPREEQFNSTFRVVSVLTVVHQDWLNGKEYKCKVSNKGLPAPIEKTISKTKGQPREPQVYTLPPSREEMTKNQVSLTCLVKGFYPSDIAVEWESNGQPENNYKTTPPMLDSDGSFFLYSKLTVDKSRWQQGNVFSCSVMHEALHNHYTQKSLSLSPG = 0.02
• D3-29-IgG2 (Fc fusion) MHVAQPAVVLASSRGIASFVCEYASPGKANEIRVTVLRQADSQVTEVCAMTYMKGDELTFLDDPSCTGTFSGNQVNLTIQGLRAMDTGLYICKVELMYPPPYYLGIGNGTQIYVIDPEPCPDSDERKCCVECPPCPAPPVAGPSVFLFPPKPKDTLMISRTPEVTCVVVDVSHEDPEVQFNWYVDGVEVHNAKTKPREEQFNSTFRVVSVLTVVHQDWLNGKEYKCKVSNKGLPAPIEKTISKTKGQPREPQVYTLPPSREEMTKNQVSLTCLVKGFYPSDIAVEWESNGQPENNYKTTPPMLDSDGSFFLYSKLTVDKSRWQQGNVFSCSVMHEALHNHYTQKSLSLSPG = 0.04

input: Suppose we examine the binder D3-4-IgG2 (Fc fusion, also called D3-04-IgG2) MHVAQPAVVLASSRGIASFVCEYESPGKANEIRVTVLRQADSQVTEVCAMTYMKGDELTFLDDPSCTGTFSGNQVNLTIQGLRAADTGLYICKVELMYPPPYYLGFGNGTQIYVIDPEPCPDSDERKCCVECPPCPAPPVAGPSVFLFPPKPKDTLMISRTPEVTCVVVDVSHEDPEVQFNWYVDGVEVHNAKTKPREEQFNSTFRVVSVLTVVHQDWLNGKEYKCKVSNKGLPAPIEKTISKTKGQPREPQVYTLPPSREEMTKNQVSLTCLVKGFYPSDIAVEWESNGQPENNYKTTPPMLDSDGSFFLYSKLTVDKSRWQQGNVFSCSVMHEALHNHYTQKSLSLSPG ; what Mean IC50 (nM), CD4+ T cell proliferation value has been reported?
output: 0.03
